This collection of values is drawn from the supplement of paper PMC10567573.

B1: SNX8 (parent)
chain: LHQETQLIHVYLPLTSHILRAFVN

# Variants of: B1
# Protocol description: protein stability index of a GFP-peptide fusion (GPS, HEK-293T) (PSI 1-6); higher = more stable;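 also: lentivirally expressed fusions sorted by FACS into six bins by GFP to DsRed ratio, PSI derived from sequencing read proportions per bin multiplied by bin number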
# Recorded conditions: c terminus: a fixed tail appended
Each entry falls into one class according to its protein stability index; the ranges are low band: < 2; middle band: ≥ 2 and < 3; high band: ≥ 3

    mutation_label  assigned_label
 0            T15W     middle band
 1             E4T        low band
 2            L12E        low band
 3            P13W       high band
 4            P13D     middle band
 5             T5D        low band
 6             E4K       high band
 7            T15M        low band
 8             Q6G     middle band
 9            R20T        low band
10             L7R       high band
11            L12P     middle band
12            V10H        low band
13            T15Y        low band
14            T15D       high band
15             T5F     middle band
16             T5P        low band
17             Q3M     middle band
